- Target Of Assay: HLA-A*0201 (human)
- Experimental Protocol: 125I-probe peptide inhibition, purified HLA
- Protocol Conditions: remark: other sources report otherwise
pIC50: −log10 of the molar value.
Assay Endpoint: pIC50

1: GLAPPQHLIRV [p53.187]
2: KMFCQLAKV [p53.132V9]
3: LLPENNVLSPL [p53.25]
4: KQSQHMTEV [p53.164]
## Task Order the entries by their reported pIC50, beginning at the minimum. List labels; respect the requested ordering.
## Result 4, 1, 2, 3
(4: 6.30, 1: 7.10, 2: 7.48, 3: 7.72)

1: KLYQGSYGFRV [p53.101L2V11]
2: ILLEDSSGNLV [p53.255L2V11]
## Task When their pIC50 values are compared, which is larger, 1 or 2 ? # reply format: chosen label
## Result 2
(2: 7.48, 1: 7.09)

Value source: patent US20040048790A1
